# System: Botrytis cinerea
# protocol-summary: Antifungal activity against Benzimidalzole-sensitive Botryotinia fuckeliana isolate Bc-9 infected compound-treated kidney bean leaves at 50 ppm after 4 days
# Format: functional
Activity values for the compounds below.
Just the number in %, nothing appended.

Task: // Activity lookup, key: COC(=O)NC(=S)Nc1ccccc1NC(=S)NC(=O)OC [THIOPHANATE METHYL]
Result: 84

Task: And then C#CCOc1c(Cl)cc(N/C=N/OC)cc1Cl , what is it?
Result: 5

Task: And then C=CC1(C)OC(=O)N(c2cc(Cl)cc(Cl)c2)C1=O (centres undefined) , what is it?
Result: 100

Task: And then C#CCOc1cc(N/C=N/OC)cc(Cl)c1OCC#C , what is it?
Result: 0

Entry source: ChEMBL document CHEMBL3046025
